- Test system: RXF 393
- assayMethodText: NCI tumour cell line growth inhibition, 48 h
Active and inactive are the calls of the source. Cut-off read from the data, not from the text of the source: active = GI50 up to about 1.1 µM and inactive = higher. Residues, ends and D or L forms follow the SMILES beside them.
Outcomes: 1 for active, 0 for inactive

compound	classAssignment
Cc1nc2ccccc2c(=O)n1NC(=O)Cc1ccccc1	0
CCN(CC)CCN1CCN=c2c3cc(OC)ccc3n3cnc4ccc1c2c43	1
CC(=O)NC(CO)C(=O)NC(Cc1ccc(O)cc1)C(=O)NCC(N)=O (stereo not drawn) (Ac-Ser-Tyr-Gly-NH2; configuration not given here)	0
O=C(/C=C/c1ccc(O)c(O)c1)NC(COC(=O)/C=C/c1ccc(O)c(O)c1)C(=O)O (configuration not stated)	0
NC(=O)c1ccc(C(=O)Nc2ccc([As](=O)(O)O)cc2)cc1	0
C=C(Cl)/C(=C\Cl)CCC(Cl)C(C)C (configuration not stated)	0
O=C(CC1S/C(=N\c2ccccc2Cl)NC1=O)Nc1ccc(Cl)cc1 (configuration not stated)	0
CCCC1(NC(=O)C(F)(F)F)CC(OC)OC2COC(c3ccccc3)OC21 (configuration not stated)	0
CC1(OCc2ccccc2)C(=O)N2C1NCC2(C)C (configuration not stated)	0
COC(=O)CCC(=O)c1ccc2c(c1)CC1(Cc3ccccc3C1)C2	0
CC(=O)Nc1ccc2cc3[nH]c4cc(NC(C)=O)ccc4c3nc2c1	0
CC1(C)CCc2c(ccc(C(=O)/C=C/c3ccc(O)cc3)c2O)O1 [DORSMANNIN A]	0
CC1CNC(c2ccc(CN3CCC(CCCC4CCN(Cc5ccc(C6=NC(C)CN6)cc5)CC4)CC3)cc2)=N1 (configuration not stated)	0
N#CC1=C(N)N(c2ccccc2)C(c2ccccc2)C1(C#N)C#N (configuration not stated)	0
O=C(O)c1cccc(CC(Br)C(=O)O)c1 (configuration not stated)	0
CN(C)c1ccc(C2SCC(=O)N2NS(=O)(=O)c2cccc(C(=O)O)c2)cc1 (configuration not stated)	0
CCCCC1=C(C(=O)N2CCOCC2)C2(OCCO2)C1=O	0
Nc1nc(=O)c(/N=N/c2ccccc2)c(C(=O)O)[nH]1	0
NC(=O)c1nc(-c2ccc(Cl)c(Cl)c2)nc2ccccc12	0
COc1cc(CC(C)C(C)Cc2ccc(O)c(OC)c2)ccc1O (configuration not stated) [DIHYDROGUAIARETIC ACID]	0
CCOC(=O)c1cc2c(=Cc3ccc(N(C)C)cc3)c3ccccc3n2[n+]1C	0
CN(C)c1n/c(=N/c2ccc(/N=c3\nc(N(C)C)ss3)cc2)ss1	0
CC1C(O)Oc2cc3c(cc2C1c1ccccc1O)OCO3 (configuration not stated)	0
CCN(CC)C(=S)SS(=O)(=O)c1ccc(F)cc1	0
O=C(N/N=C(COc1ccccc1)\N=C\c1cccnc1)c1ccncc1	0
Cn1c2ccccc2c2ccc3c(c21)C(=O)c1ccc2c4ccccc4n(C)c2c1C3=O	0
O=C(N/C(=C\c1ccc2c(c1)OCO2)c1nc2ccccc2[nH]1)c1ccccc1	0
COc1cccc(C2c3cc4c(cc3OC3COC(=O)C32)OCO4)c1OC (configuration not stated)	0
CN(C)CCS/C(=N\c1ccccc1)n1cccc1	0
COc1cc2cc(C(=O)N3CC(CCl)c4ccc(N(C)C)cc43)[nH]c2c(OC)c1OC (configuration not stated)	1
CCOC(=O)c1s/c(=N\Nc2nc3ccccc3cc2C2OCCO2)n(Cc2ccccc2)c1C	0
CCOP(=O)(/C=C\n1ccc(N)nc1=O)OCC	0
C[C@]12CCC(=O)C=C1CC[C@@H]1[C@@H]2CC[C@]2(C)C(=O)/C(=C/c3ccc([N+](=O)[O-])cc3)C[C@@H]12	0
CN1CCN(c2ccc([N+](=O)[O-])c3no[n+]([O-])c23)CC1	1
O=c1c2ccccc2nc(-c2ccccc2)n1O	0
CCn1c(=O)c2c3ccc(O)cc3oc2c2ccc(O)cc21	0
COc1ccc2c(c1)/C(=C\c1c(Cl)[nH]c3cc(C)c(OC)cc13)C(=O)N2	1
CC(C)O/C=C1\C(=O)C2(SCCS2)[C@H]2CCCC[C@@H]12	0
Cc1nnc2sc(-c3ccc([N+](=O)[O-])o3)nn12	0
COc1c(OC(C)=O)c(OC(C)=O)cc2c1-c1ccc(OC)c(=O)cc1C(NC(C)=O)CC2 (configuration not stated)	1
COC1=NC(NC2OCC(O)C(O)C2O)=C(NC(C)=O)CN1C (configuration not stated)	0
CCCCCCCCCCCCCCCC(=O)NCC(COP(=O)([O-])OCC[N+](C)(C)C)OCC (configuration not stated)	0
